Cited source: patent US6911444B2

endpointName: melting point (°C)

1. CN(C)S(=O)(=O)N1CCN(CCOC(=O)c2sc(C(C)(C)c3c(Cl)cc(-n4ncc(=O)[nH]c4=O)cc3Cl)nc2-c2ccccc2)CC1 | 220

[I] CN(C)S(=O)(=O)N1CCN(CCO)CC1
[II] CCOP(=O)(COC(=O)c1sc(C(C)(C)c2c(Cl)cc(-n3ncc(=O)[nH]c3=O)cc2Cl)nc1-c1ccccc1)OCC
Incoming: Form: Entry with minimum melting point (choose one): I / II Write down the label attached to your selection.
Outgoing: II
(II: 88 °C, I: 186 °C)

----------
endpointName: melting point (°C)

Take a look at these entries with their results.
1) CC(C)(c1nc(-c2ccccc2)c(C(=O)OC2COC(=O)C2O)s1)c1c(Cl)cc(-n2ncc(=O)[nH]c2=O)cc1Cl (stereo not drawn) [Compound 131] | 144
2) Cc1oc(=O)oc1CSC(=O)c1sc(C(C)(C)c2c(Cl)cc(-n3ncc(=O)[nH]c3=O)cc2Cl)nc1-c1ccccc1 [Compound 71] | 97
3) CC(C)(c1nc(-c2ccccc2)c(C(=O)OCC(F)(F)F)s1)c1c(Cl)cc(-n2ncc(=O)[nH]c2=O)cc1Cl [Compound 78] | 180
4) CC(C)(c1nc(-c2ccccc2)c(CCC(=O)OC2CCOC2=O)s1)c1c(Cl)cc(-n2ncc(=O)[nH]c2=O)cc1Cl (stereo not drawn) [Compound 81] | 190

[I] CC1(C)OCC(COC(=O)c2sc(C(C)(C)c3c(Cl)cc(-n4ncc(=O)[nH]c4=O)cc3Cl)nc2-c2ccccc2)O1 (stereo not drawn) [Compound 92]
[II] COCCOC(=O)OC(C)OC(=O)c1sc(C(C)(C)c2c(Cl)cc(-n3ncc(=O)[nH]c3=O)cc2Cl)nc1-c1ccccc1 (stereo not drawn) [Compound 99]
Incoming: Form: Entry with minimum melting point (choose one): I / II Write down the label attached to your selection.
Outgoing: II
(II: 88 °C, I: 163 °C)

----------
endpointName: melting point (°C)

1. CC(C)(c1nc(-c2ccccc2)c(C(=O)OC2CCCC(OC(=O)c3sc(C(C)(C)c4c(Cl)cc(-n5ncc(=O)[nH]c5=O)cc4Cl)nc3-c3ccccc3)C2)s1)c1c(Cl)cc(-n2ncc(=O)[nH]c2=O)cc1Cl (stereo not drawn) [Compound 139] | 180
2. CCCC(=O)OCOC(=O)c1sc(C(C)(C)c2c(Cl)cc(-n3ncc(=O)[nH]c3=O)cc2Cl)nc1-c1ccccc1 [Compound 108] | 146
3. CC(OC(=O)OCCS(C)(=O)=O)OC(=O)c1sc(C(C)(C)c2c(Cl)cc(-n3ncc(=O)[nH]c3=O)cc2Cl)nc1-c1ccccc1 (stereo not drawn) [Compound 110] | 104
4. CN(C)S(=O)(=O)NCCOC(=O)c1sc(C(C)(C)c2c(Cl)cc(-n3ncc(=O)[nH]c3=O)cc2Cl)nc1-c1ccccc1 [Compound 76] | 150
5. Cc1oc(=O)oc1COC(=O)Cc1sc(C(C)(C)c2c(Cl)cc(-n3ncc(=O)[nH]c3=O)cc2Cl)nc1-c1ccccc1 [Compound 72] | 149
6. CC(C)(c1nc(-c2ccccc2)c(C(=O)OCCN2CCN(S(N)(=O)=O)CC2)s1)c1c(Cl)cc(-n2ncc(=O)[nH]c2=O)cc1Cl [Compound 79] | 133
